# reported inhibition; entries follow
Molecular target: Integrin beta-1 (Homo sapiens) + Integrin alpha-4 (Homo sapiens) (UniProt P13612+P05556)
Sequence (P05556 whole entry, looked up): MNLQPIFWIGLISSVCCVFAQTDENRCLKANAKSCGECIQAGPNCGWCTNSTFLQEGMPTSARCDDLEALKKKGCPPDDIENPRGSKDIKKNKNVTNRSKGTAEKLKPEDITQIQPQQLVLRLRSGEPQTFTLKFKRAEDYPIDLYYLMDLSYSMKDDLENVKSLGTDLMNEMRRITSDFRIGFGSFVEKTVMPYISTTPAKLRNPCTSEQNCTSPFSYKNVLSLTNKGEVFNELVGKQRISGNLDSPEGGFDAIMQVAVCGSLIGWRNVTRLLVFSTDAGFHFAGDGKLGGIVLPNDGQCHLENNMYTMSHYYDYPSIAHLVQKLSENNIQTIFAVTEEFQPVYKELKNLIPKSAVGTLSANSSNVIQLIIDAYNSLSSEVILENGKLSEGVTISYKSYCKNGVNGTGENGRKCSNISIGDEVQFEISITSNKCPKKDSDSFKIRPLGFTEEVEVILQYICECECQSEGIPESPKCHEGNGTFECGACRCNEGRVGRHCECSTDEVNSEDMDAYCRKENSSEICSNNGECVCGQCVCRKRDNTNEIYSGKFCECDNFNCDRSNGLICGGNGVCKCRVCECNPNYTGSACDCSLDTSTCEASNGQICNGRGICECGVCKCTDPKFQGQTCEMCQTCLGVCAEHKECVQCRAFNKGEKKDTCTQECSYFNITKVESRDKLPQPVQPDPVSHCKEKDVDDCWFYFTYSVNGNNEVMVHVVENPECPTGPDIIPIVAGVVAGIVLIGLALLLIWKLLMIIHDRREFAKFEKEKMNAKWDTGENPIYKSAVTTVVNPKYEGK
Sequence (P13612 whole entry, looked up): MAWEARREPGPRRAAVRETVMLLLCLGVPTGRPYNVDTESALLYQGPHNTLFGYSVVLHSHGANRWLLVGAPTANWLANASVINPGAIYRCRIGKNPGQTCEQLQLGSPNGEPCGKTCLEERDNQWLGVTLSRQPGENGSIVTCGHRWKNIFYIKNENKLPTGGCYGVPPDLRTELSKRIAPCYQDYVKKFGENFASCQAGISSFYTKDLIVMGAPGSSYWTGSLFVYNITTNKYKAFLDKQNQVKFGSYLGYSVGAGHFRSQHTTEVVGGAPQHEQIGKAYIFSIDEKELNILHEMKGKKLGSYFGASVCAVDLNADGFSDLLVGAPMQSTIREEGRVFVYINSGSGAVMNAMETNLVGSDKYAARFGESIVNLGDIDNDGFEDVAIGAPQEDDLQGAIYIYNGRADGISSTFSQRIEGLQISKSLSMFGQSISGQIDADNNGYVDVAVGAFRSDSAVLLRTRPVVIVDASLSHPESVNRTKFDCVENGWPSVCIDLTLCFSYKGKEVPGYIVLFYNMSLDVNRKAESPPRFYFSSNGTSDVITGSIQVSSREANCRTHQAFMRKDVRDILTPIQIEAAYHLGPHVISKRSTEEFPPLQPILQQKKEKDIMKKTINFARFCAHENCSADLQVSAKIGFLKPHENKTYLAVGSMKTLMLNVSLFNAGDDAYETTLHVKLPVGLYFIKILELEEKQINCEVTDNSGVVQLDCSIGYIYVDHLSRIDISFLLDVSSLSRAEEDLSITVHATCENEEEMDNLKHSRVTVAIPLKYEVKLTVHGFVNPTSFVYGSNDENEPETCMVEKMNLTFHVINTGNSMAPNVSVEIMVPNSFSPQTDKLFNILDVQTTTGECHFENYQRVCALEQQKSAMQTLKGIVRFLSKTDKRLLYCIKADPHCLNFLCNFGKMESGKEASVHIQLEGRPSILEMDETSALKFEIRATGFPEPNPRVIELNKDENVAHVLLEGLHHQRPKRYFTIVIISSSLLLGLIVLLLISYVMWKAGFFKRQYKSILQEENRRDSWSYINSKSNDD
Experiment: alpha4beta1 integrin LIBS antibody binding reduction – U937 cells, HUTS-21 mAb, flow cytometry, validation set, VLA-4 allosteric modulator project, pilot screen (AID 2674);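 also: antibody binding induced by the VLA-4 ligand LDV present at three times its Kd; 0% = LDV ligand with antibody and no compound and 100% = antibody without LDV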
Settings: HUTS-21 LIBS mAb binding, at 6.7 µM, active compounds read high, binding induced by LDV ligand
Write the answer as a number in %, unit excluded.

- molecule: "COc1ccc2cc([C@H](C)C(=O)O)ccc2c1"
  measured_endpoint: "inhibition"
  measured_number: 2.3
- molecule: "O=C(COc1ccc(F)cc1)OCCN1CCOCC1"
  measured_endpoint: "inhibition"
  measured_number: -2.53
- molecule: "COc1ccc(NC(=S)N2CCN(CCN3C(=O)c4cccc5cccc(c45)C3=O)CC2)cc1"
  measured_endpoint: "inhibition"
  measured_number: -6.15
- molecule: "COc1ccc(NC(=O)CC2C(=O)N(C)C(=S)N2Cc2ccncc2)cc1 (stereo unspecified)"
  measured_endpoint: "inhibition"
  measured_number: 5.49
- molecule: "O=C(O)C1CCN(C(=O)COc2ccc3c4c(c(=O)oc3c2)CCC4)CC1"
  measured_endpoint: "inhibition"
  measured_number: 6.55

Quick one: inhibition for "C=C(C)[C@@H]1CC=C(CN2CCC(N3CCC(C(=O)N4CCCC4)CC3)CC2)CC1" ?
1.62

Any idea what inhibition was measured for "O=C1ON=C(c2ccc(Cl)cc2)/C1=C/c1ccc(O)cc1" ?
14.6

I would be grateful if you could share the reported inhibition for COc1ccccc1N1CCN(CC(O)COc2cccc3ccccc23)CC1 (stereo unspecified) .
8.25

Please look up its inhibition: CC(C)COC(=O)C1C(=O)CC(C)(O)C(C(=O)OCC(C)C)C1c1cccnc1 (stereo unspecified)
8.4

Field request: inhibition | item: O=C(COc1ccccc1)Nc1ccc2c(c1)C(=O)N(CC1CCCO1)C2=O (stereo unspecified)
13.7

Entry "COCCCNc1nc2c([nH]1)c(=O)[nH]c(=O)n2C" has what inhibition?
9.95
